assay: Inhibition of Escherichia coli BL21(DE3) methionine aminopeptidase in presence of Fe(II) metal ions
pIC50: −log10 of the molar value.
Hi, to clarify the labels: satisfied covers pIC50 from 5 upward, not satisfied covers anything below 5.

# count of solved cases: 3
>  <SMILES INPUT>
Oc1ccc(-c2cc(Cl)sc2Cl)cc1O

>  <CLASS>
not satisfied

$$$$
>  <SMILES INPUT>
Oc1ccc(-c2cccs2)cc1O

>  <CLASS>
satisfied

$$$$
>  <SMILES INPUT>
Cc1ccc(-c2ccc(O)c(O)c2)s1

>  <CLASS>
not satisfied

$$$$

Consider now this further molecule.
Given Cc1nc(C(=O)NC(C)C)c(-c2ccc(O)c(O)c2)s1 , state whether its pIC50 is at least 5.
not satisfied

----------
tested on: Escherichia coli; assay: Antibacterial activity against Escherichia coli ATCC 25922; assay type: functional, organism-based
MEASURE NAME: IC50 (µM)
Give bare numbers, in µM.

>  <SMILES INPUT>
Cc1ccsc1-c1ccc(O)c(O)c1

>  <DATA VALUE>
179

$$$$

We now examine a further molecule.
For reference, reported IC50 for Cc1nc(-c2ccc(O)c(O)c2)cs1 stands at 281

----------
system: Escherichia coli; test: Antibacterial activity against Escherichia coli AS19; format: functional, organism-based
MEASURE NAME: log10 of IC50 (log10 of the value in µM)
Friendly reminder: values = log10 of IC50, unit µM.

Solved entries (count: 3):
>  <SMILES INPUT>
Oc1ccc(-c2cc(Cl)sc2Cl)cc1O

>  <MEASURE NAME>
log10 of IC50

>  <DATA VALUE>
0.79

$$$$
>  <SMILES INPUT>
Cc1ccsc1-c1ccc(O)c(O)c1

>  <MEASURE NAME>
log10 of IC50

>  <DATA VALUE>
1.18

$$$$
>  <SMILES INPUT>
Oc1ccc(-c2cccs2)cc1O

>  <MEASURE NAME>
log10 of IC50

>  <DATA VALUE>
1.52

$$$$

Here are 5 molecules. What values of log10 of IC50 were reported for them?
1. Cc1nc(-c2ccc(N)c([N+](=O)[O-])c2)cs1
2. Cc1nc(-c2ccc(N)c(N)c2)cs1
3. CCc1ccsc1-c1ccc(O)c(O)c1
4. O=C(NC1CC1)c1ccsc1-c1ccc(O)c(O)c1
5. Cc1ccc(-c2ccc(O)c(O)c2)s1

2.31
2.07
1.19
2.06
1.94

Here are 2 molecules. What values of log10 of IC50 were reported for them?
1. Cc1cc(-c2ccc(O)c(O)c2)c(C)s1
2. Oc1ccc(-c2nccs2)cc1O

1.27
2.37

Here are 3 molecules. What values of log10 of IC50 were reported for them?
1. CCCCc1ccsc1-c1ccc(O)c(O)c1
2. O=C(NC1CC1)c1ccc(-c2ccc(O)c(O)c2)s1
3. Cc1nc(-c2cccc(O)c2)cs1

[1.09, 2.04, 2.20]

----------
test system: Escherichia coli; assay: Antibacterial activity against Escherichia coli AS19; format: functional, organism-based
MEASURE NAME: IC50 (µM)
One number for each entry, in µM.

Solved entries (count: 5):
>  <SMILES INPUT>
CC(=O)Nc1ccc(-c2csc(C)n2)cc1[N+](=O)[O-]

>  <DATA VALUE>
63.3

$$$$
>  <SMILES INPUT>
Cc1sc(C)c(-c2ccc(O)c(O)c2)c1Br

>  <DATA VALUE>
10.8

$$$$
>  <SMILES INPUT>
Cc1nc(C(=O)NC(C)C)c(-c2ccc(O)c(O)c2)s1

>  <DATA VALUE>
116

$$$$
>  <SMILES INPUT>
Oc1ccc(-c2ccsc2)cc1O

>  <DATA VALUE>
29.9

$$$$
>  <SMILES INPUT>
Oc1ccc(-c2ccc(Cl)s2)cc1O

>  <DATA VALUE>
15.5

$$$$

Here are 8 compounds. What values of IC50 were reported for them?
1. Oc1ccc(-c2sccc2CCBr)cc1O
2. Cc1nc(-c2ccc(O)c(C(N)=O)c2)cs1
3. N#Cc1ccc(-c2ccc(O)c(O)c2)s1
4. Nc1nc(-c2ccc(O)c(O)c2)cs1
5. Cc1nc(-c2ccc(O)c(O)c2)cs1
6. Cc1nc(C(=O)NC2CC2)c(-c2ccc(O)c(O)c2)s1
7. CCCc1ccsc1-c1ccc(O)c(O)c1
8. Cc1nc(-c2ccc(O)cc2O)cs1

[11.3, 125, 20.1, 145, 117, 125, 15.5, 95.9]

For reference, reported IC50 for COc1ccc(-c2csc(C)n2)cc1OC stands at 206

Origin of measurements: ChEMBL document CHEMBL1140109
